# test-details: surface biotinylation, pull-down, western, COS-7
# setup-conditions: glycan lost; control: WT Vstm5
measurement-kind: localisation_or_trafficking, fold_change

INSERT INTO assay_data (protein, measurement_kind, observed_value) VALUES
  ('V-set and transmembrane domain-containing protein 5 (Vstm5): N87A (protein) parent chain: MRPLRCGERTQGIPLGLLAFWVTAARCLQSQGVSLYIPQSAINATVQQDILLSVDYICHGVPTIEWKYTPNWGVQRIVEWKPGTPANVSQSHRDRVCTFDNGSIQLFNVSVKDSGYYIVTVTEHPGSSQSGTILLRVSEIRYEDLHFVAVFFALLAAVAVVLISLMWVCNQCAYKFQRKRRYKLKESTTEEIEMKEVEC', 'localisation_or_trafficking, fold_change', 'increases'),
  ('V-set and transmembrane domain-containing protein 5 (Vstm5): N108A (protein) parent chain: MRPLRCGERTQGIPLGLLAFWVTAARCLQSQGVSLYIPQSAINATVQQDILLSVDYICHGVPTIEWKYTPNWGVQRIVEWKPGTPANVSQSHRDRVCTFDNGSIQLFNVSVKDSGYYIVTVTEHPGSSQSGTILLRVSEIRYEDLHFVAVFFALLAAVAVVLISLMWVCNQCAYKFQRKRRYKLKESTTEEIEMKEVEC', 'localisation_or_trafficking, fold_change', 'increases');
